test: Acute toxicity after intraperitoneal administration, NMRI mouse; conditions: in vivo, ip, 3 weeks, Litchfield and Wilcox
readout-type: LD50 at 504 h (mg/kg)

smiles_code=C/C(O)=C(\C#N)C(=O)Nc1ccc(C(F)(F)F)cc1 readout_unit=mg/kg observed_measurement=150
